This section presents compounds with their documented GI50 values.
# Tested on: SNB-19
# methodSummary: NCI tumour cell line growth inhibition, 48 h
Activity calls are given as the source filed them. Cut-off read from the data, not from the text of the source: active = GI50 up to about 1.1 µM and inactive = higher.

# count of solved cases: 4
| compound | valueMeasured |
| --- | --- |
| CCOC(=O)CC1(Cc2ccc(OCc3ccccc3)cc2)C(=O)OC(c2ccccc2)N1C(=O)c1ccccc1 (stereo not drawn) | > 100 µM (inactive) |
| c1ccc2c(c1)Sc1ccccc1N2C1CN2CCC1CC2 (stereo not drawn) | 18.8 µM (inactive) |
| OC(c1ccccc1)c1c(-c2ccccc2)[nH]c(-c2ccccc2)c1C(O)c1ccccc1 (stereo not drawn) | 3.56 µM (inactive) |
| CSc1nc(-c2ccccc2)nc(N2CCOCC2)[s+]1 | > 100 µM (inactive) |

Looking for the measured GI50 of COc1ccc(-c2nc(N)c3ncn(C4OC(CO)C(O)C4O)c3n2)cc1 (stereo not drawn) , can you help? > 100 µM (inactive)

Please answer likewise for COc1cc(OC)c2c(c1-c1ccc(C)cc1)CC(C)N(Cc1ccccc1)[C@H]2C (stereo partly drawn) 67.9 µM (inactive)

###

# Test system: RXF 393
# methodSummary: NCI tumour cell line growth inhibition, 48 h
The source made the active and inactive calls. Cut-off read from the data, not from the text of the source: active = GI50 up to about 1.1 µM and inactive = higher.
outcomeMeasure: GI50

# count of solved cases: 3
| compound | outcomeMeasure | valueMeasured |
| --- | --- | --- |
| COc1cc(C2C(C(=O)Nc3ccc([N+](=O)[O-])cc3)=C(C)NC(C)=C2C(=O)Nc2ccc([N+](=O)[O-])cc2)ccc1O | GI50 | 19.5 µM (inactive) |
| C=C(CN(C)C)C(=O)c1cc(C)ccc1C | GI50 | 2.61 µM (inactive) |
| CCOC(=O)c1nc[nH]c1/N=N/N(C)N | GI50 | > 100 µM (inactive) |

Then this compound:
Looking for the measured GI50 of Cc1cccc(Nc2cn(CCOc3ccccc3)c(=O)[nH]c2=O)c1 , can you help? 34.8 µM (inactive)

###

# Tested on: IGROV-1
# methodSummary: NCI tumour cell line growth inhibition, 48 h
Activity calls are given as the source filed them. No stated cut-off is given here; in the data, active = GI50 up to about 1.1 µM and inactive = higher.
The categories you may choose from are active, inactive

| compound | label |
| --- | --- |
| COc1ccc(NC(=O)COC(=O)c2cccc3c(=O)c4ccccc4[nH]c23)cc1 | inactive |

Hey, what did the test say about N#CCCNCCN(CCN(C(=O)Nc1ccccc1)c1ccccc1)C(=O)Nc1ccccc1 ? inactive

Please answer likewise for N#C/C(=C\c1c[nH]c2ccccc12)C(=O)c1ccc(O)c(O)c1 inactive

Please answer likewise for Cc1cc(=O)[nH]c(-n2[nH]c(C)c(CCO)c2=O)n1 inactive

Please answer likewise for CC1=NN(C(=O)CC(=O)Nc2ccccc2C)C(=O)C1/N=N/c1ccc(C(=O)O)cc1 (stereo unspecified) inactive

Please answer likewise for Nc1c(C(=O)c2ccc(Cl)cc2)[nH]c(NCc2ccccc2)c1C(=S)Nc1ccccc1 inactive

Please answer likewise for NC(=O)c1cc(N2CC2)c([N+](=O)[O-])cc1[N+](=O)[O-] [TRETAZICAR] inactive

Please answer likewise for N#CC(C(=O)CCC(=O)Nc1cccc(Cl)c1)c1ccccc1 (stereo unspecified) inactive

Please answer likewise for CCOc1cc2c[n+](C)c3c4cc(OC)c(OC)cc4ccc3c2cc1OC inactive

Please answer likewise for CC(C)(C)OC(=O)N1CCCC1C(=O)NCCNc1ccc(NCCNC(=O)C2CCCN2C(=O)OC(C)(C)C)c2c1C(=O)c1ccccc1C2=O (stereo unspecified) inactive

Please answer likewise for O=C(O)c1cc(-c2ccc(-c3ccccc3)cc2)nc2cc3ccccc3cc12 inactive

Please answer likewise for CC(C)C1CC(CO)(CNc2nc(N)nc(Cl)c2C=O)C1 (stereo unspecified) inactive

Please answer likewise for O=P1(c2ccccc2)C(c2ccccc2)=CC=C1c1ccccc1 inactive

Please answer likewise for CC(=O)N1CC[N+](C)(CCCCN2c3ccccc3Sc3cc(N=[N+]=[N-])ccc32)CC1 inactive

Please answer likewise for CC(C)(C)c1cc(Cc2ccc([N+](C)(C)C)cc2)c(O)c(C(C)(C)C)c1 inactive

Please answer likewise for N[C@H]1CCN(c2c(F)cc3c(=O)c(C(=O)O)cn4c3c2Oc2c-4ccc3c2ccc2ccccc23)C1 active
